# key: entry, value: TGI
Tested on: SF-268 CNS
Test: NCI tumour cell line growth inhibition, 48 h

Molecule | Measured Endpoint | Result
Cc1c(-c2ccccc2)c(=O)oc2ccc(Cl)cc12 | TGI | > 100 µM
Cc1ccc(S(=O)(=O)N2c3ccccc3[C@H]3CCc4c([nH]c5ccccc45)[C@H]32)cc1 | TGI | > 100 µM
Cc1cc2nc3c(C#N)c(-c4ccccc4)/c(=C\Nc4ccc(Cl)cc4)c(=O)n3c2cc1C | TGI | > 100 µM
c1ccc(N=C(N2CCOCC2)N(CCN2CCOCC2)c2ccccc2)cc1 | TGI | > 100 µM
COc1ccccc1-c1cc(/C=C2\C(=O)Nc3ncc(Br)cc32)cc(Br)c1O | TGI | > 25 µM

Given the molecule CCOC(=O)C(Cc1c[nH]c2ccc([N+](=O)[O-])cc12)(NC(C)=O)C(=O)OCC and test system SF-268 CNS, the measured TGI is > 1000 µM

* * *

Tested on: OVCAR-4 ovarian
Assay: NCI tumour cell line growth inhibition, 48 h
# key: entry, value: TGI

These solved cases illustrate the format of a correct answer.
Compound | TGI
CCN1C(=O)N(CC)C2C1NN=c1s/c(=C\c3ccccc3F)c(=O)n12 (stereo not given) | > 100 µM
CC1(C)C(C#N)=[N+]([O-])C(C)(C)N1O | > 100 µM
C1=Nc2ccc(cc2)N=Cc2ccccc2OCc2cccc(n2)COc2ccccc21 | > 100 µM
CN(C)CC1CCCC(CN2CCCCC2)C1=O (stereo not given) | 7.75 µM
Cc1ccc(/C=N/Nc2nc3ccccc3s2)s1 | > 100 µM
NC(=O)NC(=O)CCC(NS(=O)(=O)c1ccccc1)C(=O)NC(N)=O (stereo not given) | > 100 µM
CCN(CC)c1ccc(C2CC(c3cc(OC)c(OC)c(OC)c3)=NN2)cc1 (stereo not given) | > 100 µM
CC(C)(Br)C(Br)CCC(=CCBr)CBr (mixture of isomers) | 17 µM
CC(C)C1C(=O)NC(CO)Cc2c[nH]c3c(C(c4c[nH]c5ccccc45)C(O)CO)ccc(c23)N1C (stereo not given) | > 100 µM

// field: TGI; key: CCCOc1ccc(-c2nc(-c3ccc(N=Cc4ccc(N(CCOS(C)(=O)=O)CCOS(C)(=O)=O)cc4C)cc3)cs2)cc1 ; value = 81.9 µM

* * *

# key: entry, value: TGI
Tested on: U251 CNS
Test: NCI tumour cell line growth inhibition, 48 h

These solved cases illustrate the format of a correct answer.
Molecule | TGI
COc1cc(OC)c2ssc3c(OC)cc(OC)c4ssc1c2-c43 | > 100 µM
CC(C)CC1C(=O)N2CCC[C@H]2C2(O)O[C@](NC(=O)C3C=C4c5cccc6[nH]c(Br)c(c56)C[C@H]4N(C)C3)(C(C)C)C(=O)N12 (stereo partly specified) | > 100 µM
O=C1/C(=C\c2ccc(F)cc2)CN(C(=O)c2ccc([N+](=O)[O-])cc2)C/C1=C\c1ccc(F)cc1 | 3.97 µM
NC(=NCCCC1(c2ccccc2)CCCC1)Nc1ccc(Cl)cc1 | 3.11 µM
CCc1n[nH]c(=O)n1N1C(=O)CCC1=O | > 100 µM

Given the molecule Cc1cc(N)ccc1N=Nc1ccc(S(=O)(=O)CCOS(=O)(=O)O)cc1 and test system U251 CNS, the measured TGI is 13.1 µM

Given the molecule O=C1OC(c2ccccc2)=N/C1=C\c1ccc2ccccc2c1 and test system U251 CNS, the measured TGI is > 100 µM

Given the molecule CCCCCCCCCCCCNC(=O)[C@H]1CSC(c2cc3ccccc3s2)N1 (stereo partly specified) and test system U251 CNS, the measured TGI is 7.19 µM

Given the molecule Cc1cccc(O)c1-c1nnc(CCCCCCCCc2nnc(-c3c(C)cccc3O)n2N)n1N and test system U251 CNS, the measured TGI is 67.5 µM

Given the molecule CNC1C(O)C(NC)C2OC3(O)C(=O)CC(C)OC3OC2C1O (stereo unspecified) and test system U251 CNS, the measured TGI is > 100 µM

Given the molecule Cc1nc2c(O)cc3c4c(=O)n(C)c(=O)n(C)c4n(Cc4ccccc4)c3c2nc1C and test system U251 CNS, the measured TGI is 35.4 µM

Given the molecule CCCCCN1CCN(c2ncccn2)CC1 and test system U251 CNS, the measured TGI is > 100 µM

Given the molecule Cc1c(C#N)c(N)[nH]c(=S)c1C#N and test system U251 CNS, the measured TGI is > 100 µM

Given the molecule C=CC(=O)N1C/C(=C\c2ccccc2)C(=O)/C(=C/c2ccccc2)C1 and test system U251 CNS, the measured TGI is 2.62 µM

Values compiled from PubChem BioAssay (NCI).
